T1/2 listing for selected binders.
study-target: TrkB (Homo sapiens (Human), UniProt Q16620 32-430)
Sequence (Q16620 32-430 limits assumed): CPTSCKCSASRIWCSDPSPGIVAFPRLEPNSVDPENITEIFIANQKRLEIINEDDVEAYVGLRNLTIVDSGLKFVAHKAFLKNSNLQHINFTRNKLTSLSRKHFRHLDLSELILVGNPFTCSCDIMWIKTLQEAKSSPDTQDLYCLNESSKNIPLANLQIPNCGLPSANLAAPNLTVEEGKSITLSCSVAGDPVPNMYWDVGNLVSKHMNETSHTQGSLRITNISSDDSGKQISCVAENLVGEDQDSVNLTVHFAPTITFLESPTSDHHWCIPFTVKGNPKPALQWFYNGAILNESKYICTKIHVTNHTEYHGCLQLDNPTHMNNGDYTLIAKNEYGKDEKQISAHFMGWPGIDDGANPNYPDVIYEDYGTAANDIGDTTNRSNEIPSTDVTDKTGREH
procedure-details: koff of Fab at 25 C; T1/2=Log2/koff
Number in min, nothing else.

Output T1/2 of 4B12-29 (Fab, V domains shown, Fab) VH: QVQLVQSGAEVKKPGASVKVSCKASGYTFTNYDIIWVRQAPGQGLEWMGYINPYNGRREYNEKFKGRVTMTRDTSTSTVYMELSSLRSEDTAVYYCARLLKYRRARYYAIDYWGQGTTVTVSS VL: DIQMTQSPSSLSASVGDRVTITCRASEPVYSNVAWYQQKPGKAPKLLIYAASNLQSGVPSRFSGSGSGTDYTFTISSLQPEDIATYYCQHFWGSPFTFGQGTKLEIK
5.6

// next item, T1/2 requested
Find the measured T1/2 of 15-G6 (Fab, V domains shown, Fab) VH: QVQLVQSGAEVKKPGASVKVSCKASGYTFTNYDIIWVRQAPGQGLEWMGYINPYNDGTKYNEKFKGRVTMTRDTSTSTVYMELSSLRSEDTAVYYCARLLKYRRFKYYAIDYWGQGTTVTVSS VL: DIQMTQSPSSLSASVGDRVTITCRTSENVYSNLAWYQQKPGKAPKLLIYAASNLQSGVPSRFSGSGSGTDFTFTISSLQPEDIATYYCQQFWYSPFTFGQGTKLEIK and report it.
1.8
